Tested on: T1, SARS-CoV2 Spike ecto foldon Trimer expressed with a C-terminal myc-myc-hexahistidine (SARS-CoV-2, UniProt P0DTC2 14-1213)
T1 construct: extracellular domain
Protocol summary: SPR Biacore, mAb captured by anti-hFc, 37C
The label depends only on t½: Condition met if it is at least 4 h, Condition not met if it is smaller.

| Binder | Qualitative label |
| --- | --- |
| mAb14282 (antibody, V domains shown) VH: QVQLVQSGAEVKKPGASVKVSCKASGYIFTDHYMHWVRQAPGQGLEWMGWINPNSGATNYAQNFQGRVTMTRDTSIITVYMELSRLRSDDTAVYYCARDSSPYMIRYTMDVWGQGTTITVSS VL: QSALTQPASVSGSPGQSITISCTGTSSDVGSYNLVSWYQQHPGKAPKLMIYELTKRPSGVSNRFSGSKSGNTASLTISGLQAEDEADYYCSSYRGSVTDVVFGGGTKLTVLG | Condition not met |

Incoming: In plain terms: is recorded t½ at least 4 h for mAb15160 (antibody, V domains shown) VH: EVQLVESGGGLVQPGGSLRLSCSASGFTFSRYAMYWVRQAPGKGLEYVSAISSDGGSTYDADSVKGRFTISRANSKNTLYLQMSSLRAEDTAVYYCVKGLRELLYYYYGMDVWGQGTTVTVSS VL: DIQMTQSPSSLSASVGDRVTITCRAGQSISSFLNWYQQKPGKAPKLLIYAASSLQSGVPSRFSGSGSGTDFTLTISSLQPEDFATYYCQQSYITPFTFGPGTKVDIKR ?
Outgoing: Condition not met

Incoming: Assess whether reported t½ for mAb14258 (antibody, V domains shown) VH: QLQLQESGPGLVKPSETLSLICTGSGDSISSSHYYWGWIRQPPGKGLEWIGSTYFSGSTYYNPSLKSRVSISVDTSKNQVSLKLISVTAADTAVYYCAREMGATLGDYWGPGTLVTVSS VL: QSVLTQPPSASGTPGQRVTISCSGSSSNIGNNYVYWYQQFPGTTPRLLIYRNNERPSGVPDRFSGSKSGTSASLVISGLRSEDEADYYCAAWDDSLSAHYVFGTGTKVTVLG sits at 4 h or higher.
Outgoing: Condition not met

Incoming: Threshold query (t½ >= 4 h) on mAb14294 (antibody, V domains shown) VH: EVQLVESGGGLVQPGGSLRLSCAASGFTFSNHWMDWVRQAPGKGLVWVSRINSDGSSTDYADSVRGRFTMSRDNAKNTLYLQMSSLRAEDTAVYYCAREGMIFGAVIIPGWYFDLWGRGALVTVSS VL: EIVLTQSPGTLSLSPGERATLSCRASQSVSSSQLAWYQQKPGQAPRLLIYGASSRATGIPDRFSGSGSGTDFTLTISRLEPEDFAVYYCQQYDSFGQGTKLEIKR
Outgoing: Condition met

Incoming: Confirm if t½ reported for the binder mAb13457 (antibody, V domains shown) VH: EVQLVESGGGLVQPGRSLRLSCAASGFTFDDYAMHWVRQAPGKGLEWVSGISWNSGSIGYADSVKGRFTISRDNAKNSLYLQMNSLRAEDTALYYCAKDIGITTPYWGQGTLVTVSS VL: AIQMTQSPSSLSASVGDRVTITCRASQDIRNDLGWYQQKPGKAPKLLIYSASSLQTGVPSRFSGSGSGTDFTLTISSLHPEDFATYYCLQDYDYTWTFGQGTKVEIKR is 4 h or above.
Outgoing: Condition not met

Incoming: Entry mAb15150 (antibody, V domains shown) VH: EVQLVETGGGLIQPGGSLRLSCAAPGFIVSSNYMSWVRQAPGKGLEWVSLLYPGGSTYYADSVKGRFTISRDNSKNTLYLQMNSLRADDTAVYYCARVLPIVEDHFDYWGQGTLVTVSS VL: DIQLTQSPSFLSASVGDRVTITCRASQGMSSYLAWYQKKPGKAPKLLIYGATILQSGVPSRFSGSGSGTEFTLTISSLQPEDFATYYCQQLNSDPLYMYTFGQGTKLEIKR : is its t½ no less than 4 h?
Outgoing: Condition met

Incoming: Check the entry mAb15165 (antibody, V domains shown) VH: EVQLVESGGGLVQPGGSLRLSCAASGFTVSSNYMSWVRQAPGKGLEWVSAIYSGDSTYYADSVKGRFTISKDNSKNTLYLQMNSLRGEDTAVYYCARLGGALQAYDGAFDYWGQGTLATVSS VL: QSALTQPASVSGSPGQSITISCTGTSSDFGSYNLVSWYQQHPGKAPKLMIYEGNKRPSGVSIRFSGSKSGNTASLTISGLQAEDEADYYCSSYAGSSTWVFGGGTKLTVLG : does t½ equal or exceed 4 h?
Outgoing: Condition not met

These data points were gathered from patent US20260069689A1.
